test system: SW-620 colon; assay: NCI-60 one-dose screen, 48 h; conditions: 10 µM unless noted
About 83,000 compounds went through this panel and 20% of them were active in at least one assay; those are over-represented in the sample as a whole. The source made the active and inactive calls. The calls were made as follows: active = growth percent below 10; inactive = the rest.
Valid outcomes are listed here; reply with one: true for active, false for inactive

| compound structure | qualitative label |
| --- | --- |
| NS(=O)(=O)c1ccc(-n2ncc3c(SCc4ccccc4)ncnc32)cc1 | false |
| COc1cnc2c(c1)C(=O)c1c-2n(CCCN2CCCC2)c(=O)c2cc(F)ccc12 | true |

// query Outcome? `Cc1cc(C)nc(NS(=O)(=O)c2ccc(Nc3nc4nc(SCc5ccccc5)nc(-c5ccc(O)cc5)c4c(=O)[nH]3)cc2)n1`
// result false
